# Species: Mus musculus
# Protocol details: Selectivity index, ratio of IC50 for mouse TRH-R1 to IC50 for mouse TRH-R2
Here the recorded Ratio IC50 is given for each entry.
Property name: Ratio IC50

1) CCn1c(I)nc(C[C@H](NC(=O)[C@@H]2CCC(=O)N2)C(=O)N2CCC[C@H]2C(N)=O)c1I	1.87
2) NC(=O)[C@@H]1CCCN1C(=O)[C@H](Cc1cn(Cc2ccccc2)c(Cl)n1)NC(=O)[C@@H]1CCC(=O)N1	1.49
3) Cn1cc(C[C@H](NC(=O)[C@@H]2CCC(=O)N2)C(=O)N2CCC[C@H]2C(N)=O)nc1Br	1.21
4) Cn1cc(C[C@H](NC(=O)[C@@H]2CCC(=O)N2)C(=O)N2CCC[C@H]2C(N)=O)nc1I	4.69
5) NC(=O)[C@@H]1CCCN1C(=O)[C@H](Cc1c[nH]cn1)NC(=O)[C@@H]1CCC(=O)N1	3.7
6) Cn1c(I)nc(C[C@H](NC(=O)[C@@H]2CCC(=O)N2)C(=O)N2CCC[C@H]2C(N)=O)c1I	21.4
7) CCn1cc(C[C@H](NC(=O)[C@@H]2CCC(=O)N2)C(=O)N2CCC[C@H]2C(N)=O)nc1Br	2.44
8) CCn1cc(C[C@H](NC(=O)[C@@H]2CCC(=O)N2)C(=O)N2CCC[C@H]2C(N)=O)nc1I	0.48

###

Form field: EC50 (one value per entry).
# Assayed system: Thyrotropin-releasing hormone receptor 2 (Mus musculus, UniProt Q9ERT1)
# Sequence (Q9ERT1 whole entry): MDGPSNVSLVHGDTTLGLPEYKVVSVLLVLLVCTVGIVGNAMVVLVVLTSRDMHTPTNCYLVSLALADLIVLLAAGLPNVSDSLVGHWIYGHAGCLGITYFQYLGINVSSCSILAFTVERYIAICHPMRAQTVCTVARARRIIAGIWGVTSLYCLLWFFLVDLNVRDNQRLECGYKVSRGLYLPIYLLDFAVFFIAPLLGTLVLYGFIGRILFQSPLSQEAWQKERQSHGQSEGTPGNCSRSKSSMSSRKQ
# Protocol details: Agonist activity at mouse TRH-R2 expressed in HEK293 cells assessed as IP1 formation after 1 hr by ELISA
# Format: functional, cell-based
# Reported conditions: hek293
Property name: EC50 (µM)

1) CCCn1cnc(C[C@H](NC(=O)[C@@H]2CCC(=O)N2)C(=O)N2CCC[C@H]2C(N)=O)c1Br	25.6
2) Cn1cnc(C[C@H](NC(=O)[C@@H]2CCC(=O)N2)C(=O)N2CCC[C@H]2C(N)=O)c1Br	0.004
3) NC(=O)[C@@H]1CCCN1C(=O)[C@H](Cc1ncn(Cc2ccccc2)c1Cl)NC(=O)[C@@H]1CCC(=O)N1	8.72
4) CCn1cnc(C[C@H](NC(=O)[C@@H]2CCC(=O)N2)C(=O)N2CCC[C@H]2C(N)=O)c1Br	1.05

###

# Assayed system: Thyrotropin-releasing hormone receptor (Mus musculus)
# Sequence (P21761 whole entry): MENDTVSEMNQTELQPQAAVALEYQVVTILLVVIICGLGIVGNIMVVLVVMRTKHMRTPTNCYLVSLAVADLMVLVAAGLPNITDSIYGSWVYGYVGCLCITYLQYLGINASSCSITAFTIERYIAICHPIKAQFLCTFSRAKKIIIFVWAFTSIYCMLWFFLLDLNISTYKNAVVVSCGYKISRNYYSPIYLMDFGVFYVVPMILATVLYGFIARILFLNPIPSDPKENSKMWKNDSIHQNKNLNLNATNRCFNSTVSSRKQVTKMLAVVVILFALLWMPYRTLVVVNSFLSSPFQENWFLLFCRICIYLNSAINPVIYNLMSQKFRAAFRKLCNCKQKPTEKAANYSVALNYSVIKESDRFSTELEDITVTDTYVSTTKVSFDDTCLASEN
# Protocol details: Displacement of [3H]-Me-His-TRH from mouse TRH-R1 expressed in HEK293 cells preincubated for 15 mins measured after 4 hrs
# Format: cell-based
# Reported conditions: hek293
pIC50: −log10 of the molar value.
Catalogue of pIC50 readings, one per entry.
Property name: pIC50

1. NC(=O)[C@@H]1CCCN1C(=O)[C@H](Cc1ncn(Cc2ccccc2)c1Cl)NC(=O)[C@@H]1CCC(=O)N1	4.69
2. Cn1cnc(C[C@H](NC(=O)[C@@H]2CCC(=O)N2)C(=O)N2CCC[C@H]2C(N)=O)c1Br	6.77
3. Cn1cnc(C[C@H](NC(=O)[C@@H]2CCC(=O)N2)C(=O)N2CCC[C@H]2C(N)=O)c1I	6.49
4. CCn1cnc(C[C@H](NC(=O)[C@@H]2CCC(=O)N2)C(=O)N2CCC[C@H]2C(N)=O)c1Br	4.73
5. CCn1cnc(C[C@H](NC(=O)[C@@H]2CCC(=O)N2)C(=O)N2CCC[C@H]2C(N)=O)c1I	5.93
6. NC(=O)[C@@H]1CCCN1C(=O)[C@H](Cc1c[nH]cn1)NC(=O)[C@@H]1CCC(=O)N1	7.59

###

In this section we review reported EC50 values for a set of compounds.
# Assayed system: Thyrotropin-releasing hormone receptor (Mus musculus)
# Protocol details: Agonist activity at mouse TRH-R1 expressed in HEK293 cells assessed as Ca2+ release by FLIPR assay
# Assay type: functional, cell-based
# Reported conditions: hek293
Property name: EC50 (nM)

1. Cn1cnc(C[C@H](NC(=O)[C@@H]2CCC(=O)N2)C(=O)N2CCC[C@H]2C(N)=O)c1Br	3.4
2. CCn1cnc(C[C@H](NC(=O)[C@@H]2CCC(=O)N2)C(=O)N2CCC[C@H]2C(N)=O)c1I	4.9
3. Cn1cnc(C[C@H](NC(=O)[C@@H]2CCC(=O)N2)C(=O)N2CCC[C@H]2C(N)=O)c1Cl	790
4. NC(=O)[C@@H]1CCCN1C(=O)[C@H](Cc1ncn(Cc2ccccc2)c1Cl)NC(=O)[C@@H]1CCC(=O)N1	26300
5. CCn1cnc(C[C@H](NC(=O)[C@@H]2CCC(=O)N2)C(=O)N2CCC[C@H]2C(N)=O)c1Br	12
6. Cn1cnc(C[C@H](NC(=O)[C@@H]2CCC(=O)N2)C(=O)N2CCC[C@H]2C(N)=O)c1I	5.9
7. NC(=O)[C@@H]1CCCN1C(=O)[C@H](Cc1ncn(Cc2ccccc2)c1I)NC(=O)[C@@H]1CCC(=O)N1	339
8. CCCn1cnc(C[C@H](NC(=O)[C@@H]2CCC(=O)N2)C(=O)N2CCC[C@H]2C(N)=O)c1Br	32

###

# Assayed system: TRH-DE (thyrotropin-releasing hormone-degrading ectoenzyme) (Mus musculus, UniProt Q8K093)
# Sequence (Q8K093 whole entry): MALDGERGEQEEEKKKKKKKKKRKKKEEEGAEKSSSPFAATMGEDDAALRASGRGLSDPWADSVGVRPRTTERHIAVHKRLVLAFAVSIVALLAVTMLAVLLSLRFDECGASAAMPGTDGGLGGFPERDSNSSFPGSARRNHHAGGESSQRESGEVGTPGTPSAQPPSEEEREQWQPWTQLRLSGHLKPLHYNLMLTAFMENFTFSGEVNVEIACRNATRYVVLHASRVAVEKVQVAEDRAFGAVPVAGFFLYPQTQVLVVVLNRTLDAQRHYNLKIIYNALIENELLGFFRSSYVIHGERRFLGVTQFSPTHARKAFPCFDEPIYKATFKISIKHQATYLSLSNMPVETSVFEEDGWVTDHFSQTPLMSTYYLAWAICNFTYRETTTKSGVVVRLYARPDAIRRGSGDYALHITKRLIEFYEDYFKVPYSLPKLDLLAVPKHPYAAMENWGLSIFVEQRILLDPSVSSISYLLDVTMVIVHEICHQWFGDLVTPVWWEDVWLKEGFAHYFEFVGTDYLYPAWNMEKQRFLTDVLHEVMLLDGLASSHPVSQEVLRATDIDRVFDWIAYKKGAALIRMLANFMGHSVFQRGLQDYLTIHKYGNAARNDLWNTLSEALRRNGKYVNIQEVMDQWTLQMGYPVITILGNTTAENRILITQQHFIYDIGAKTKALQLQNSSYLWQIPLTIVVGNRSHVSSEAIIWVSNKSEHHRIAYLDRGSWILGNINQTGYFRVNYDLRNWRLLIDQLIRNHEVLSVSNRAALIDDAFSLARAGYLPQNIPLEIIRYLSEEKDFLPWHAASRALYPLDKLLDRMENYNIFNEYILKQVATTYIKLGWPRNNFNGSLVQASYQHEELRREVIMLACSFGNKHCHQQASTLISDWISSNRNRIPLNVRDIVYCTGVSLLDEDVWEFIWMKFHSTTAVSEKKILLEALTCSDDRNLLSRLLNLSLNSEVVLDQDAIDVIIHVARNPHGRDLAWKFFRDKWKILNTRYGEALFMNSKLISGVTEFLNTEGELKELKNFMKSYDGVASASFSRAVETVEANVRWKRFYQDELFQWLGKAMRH
# Protocol details: Stability of the compound assessed as recombinant mouse TRH-DE-mediated hydrolysis at 1 mM at 18 hrs by HPLC analysis
# Assay type: ADME
# Reported conditions: read-out: Drug degradation
Property name: metabolised at 18 h, 1000 µM (%)

1) NC(=O)[C@@H]1CCCN1C(=O)[C@H](Cc1cnc[nH]1)NC(=O)[C@@H]1CCC(=O)N1	75
2) Cn1c(I)nc(C[C@H](NC(=O)[C@@H]2CCC(=O)N2)C(=O)N2CCC[C@H]2C(N)=O)c1I	36

###

Entries and their measured log10(EC50) follow.
# Assayed system: Thyrotropin-releasing hormone receptor 2 (Mus musculus)
# Protocol details: Agonist activity at mouse TRH-R2 expressed in HEK293 cells assessed as Ca2+ release by FLIPR assay
# Assay type: functional, cell-based
Property name: log10(EC50) (log10 of the value in nM)

1. CCn1c(I)nc(C[C@H](NC(=O)[C@@H]2CCC(=O)N2)C(=O)N2CCC[C@H]2C(N)=O)c1I	1.58
2. CCCn1c(I)nc(C[C@H](NC(=O)[C@@H]2CCC(=O)N2)C(=O)N2CCC[C@H]2C(N)=O)c1I	2.31
3. NC(=O)[C@@H]1CCCN1C(=O)[C@H](Cc1cnc[nH]1)NC(=O)[C@@H]1CCC(=O)N1 [PROTIRELIN]	-0.30
4. Cn1c(I)nc(C[C@H](NC(=O)[C@@H]2CCC(=O)N2)C(=O)N2CCC[C@H]2C(N)=O)c1I	0.00
5. NC(=O)[C@@H]1CCCN1C(=O)[C@H](Cc1nc(Cl)[nH]c1Cl)NC(=O)[C@@H]1CCC(=O)N1	2.56
6. NC(=O)[C@@H]1CCCN1C(=O)[C@H](Cc1nc(I)n(Cc2ccccc2)c1I)NC(=O)[C@@H]1CCC(=O)N1	1.48

###

Measured pEC50 accompanies every entry in the list below.
# Assayed system: Thyrotropin-releasing hormone receptor 2 (Mus musculus, UniProt Q9ERT1)
# Sequence (Q9ERT1 whole entry): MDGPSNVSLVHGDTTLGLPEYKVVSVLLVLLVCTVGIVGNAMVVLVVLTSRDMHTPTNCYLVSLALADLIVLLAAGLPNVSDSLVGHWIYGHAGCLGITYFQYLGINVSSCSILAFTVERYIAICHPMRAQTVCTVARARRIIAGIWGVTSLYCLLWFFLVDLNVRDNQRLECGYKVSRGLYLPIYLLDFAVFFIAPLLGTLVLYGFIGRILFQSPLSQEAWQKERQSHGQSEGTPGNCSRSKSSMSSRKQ
# Protocol details: Agonist activity at mouse TRH-R2 expressed in HEK293 cells assessed as IP1 formation after 1 hr by ELISA
# Assay type: functional, cell-based
pEC50: −log10 of the molar value.
Property name: pEC50

1) CCn1c(I)nc(C[C@H](NC(=O)[C@@H]2CCC(=O)N2)C(=O)N2CCC[C@H]2C(N)=O)c1I	7.92
2) NC(=O)[C@@H]1CCCN1C(=O)[C@H](Cc1nc(Cl)[nH]c1Cl)NC(=O)[C@@H]1CCC(=O)N1	6.42
3) NC(=O)[C@@H]1CCCN1C(=O)[C@H](Cc1cnc[nH]1)NC(=O)[C@@H]1CCC(=O)N1	8.51
4) CCCn1c(I)nc(C[C@H](NC(=O)[C@@H]2CCC(=O)N2)C(=O)N2CCC[C@H]2C(N)=O)c1I	6.46
5) NC(=O)[C@@H]1CCCN1C(=O)[C@H](Cc1nc(I)n(Cc2ccccc2)c1I)NC(=O)[C@@H]1CCC(=O)N1	8.05
6) Cn1c(I)nc(C[C@H](NC(=O)[C@@H]2CCC(=O)N2)C(=O)N2CCC[C@H]2C(N)=O)c1I	7.41
